Data origin, for the record: PubChem BioAssay (EPA / NIEHS)

target: AR (gene 367) (UniProt P10275); experiment: ACEA_AR_agonist_80hr: ACEA Biosciences xCELLigence Real-Time Cell Analysis on Androgen Receptor Agonism for Proliferation (AID 2283783);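 further: hits increase impedance growth signal above DMSO baseline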
Sequence (P10275 whole entry, looked up): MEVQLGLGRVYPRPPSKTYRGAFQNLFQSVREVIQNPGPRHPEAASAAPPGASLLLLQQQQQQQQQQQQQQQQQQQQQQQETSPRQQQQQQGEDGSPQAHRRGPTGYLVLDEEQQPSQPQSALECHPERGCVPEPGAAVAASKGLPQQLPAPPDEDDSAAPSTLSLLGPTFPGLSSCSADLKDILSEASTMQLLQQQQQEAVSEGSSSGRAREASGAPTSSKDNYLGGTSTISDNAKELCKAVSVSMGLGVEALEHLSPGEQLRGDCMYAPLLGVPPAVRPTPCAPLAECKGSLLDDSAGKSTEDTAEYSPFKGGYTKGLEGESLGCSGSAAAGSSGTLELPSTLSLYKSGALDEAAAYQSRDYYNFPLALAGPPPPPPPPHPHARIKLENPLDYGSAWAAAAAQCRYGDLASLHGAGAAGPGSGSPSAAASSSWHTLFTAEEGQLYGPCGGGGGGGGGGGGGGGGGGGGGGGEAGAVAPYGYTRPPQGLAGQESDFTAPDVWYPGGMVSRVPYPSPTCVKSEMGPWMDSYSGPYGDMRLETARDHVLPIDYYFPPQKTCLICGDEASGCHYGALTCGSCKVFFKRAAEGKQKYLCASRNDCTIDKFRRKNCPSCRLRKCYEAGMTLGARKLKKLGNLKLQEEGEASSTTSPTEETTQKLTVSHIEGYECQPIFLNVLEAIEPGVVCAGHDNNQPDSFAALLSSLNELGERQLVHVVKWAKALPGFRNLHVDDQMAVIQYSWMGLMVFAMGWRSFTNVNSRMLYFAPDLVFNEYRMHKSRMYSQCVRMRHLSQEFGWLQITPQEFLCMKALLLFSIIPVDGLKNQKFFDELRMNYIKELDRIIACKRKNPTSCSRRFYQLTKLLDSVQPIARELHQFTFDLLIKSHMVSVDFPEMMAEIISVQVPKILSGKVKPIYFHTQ
Inconclusive results are not listed. The source made the active and inactive calls. How the source made its calls: active means hit-call score of the fitted dose curve at least 0.9, where 1 is the maximum; inconclusive means response in the unintended direction; inactive means score below 0.9.
Thanks in advance; please answer with one of these: active, inactive

Example results:
>  <Compound>
CCCCCC[C@@H](O)C/C=C\CCCCCCCC(=O)OCC(O)CO (stereo partly specified)

>  <Class name>
inactive

$$$$
>  <Compound>
COc1cc(O)c(C(=O)c2ccccc2)cc1S(=O)(=O)O

>  <Class name>
active

$$$$
>  <Compound>
C=C1C[C@H]2[C@@H]3C=C(C)C4=CC(=O)CC[C@]4(C)[C@H]3CC[C@]2(C)[C@@]1(OC(C)=O)C(C)=O

>  <Class name>
inactive

$$$$

What was the test verdict on `CCC[Si](OC)(OC)OC` ?
inactive

What was the test verdict on `CN(C)Cc1cc(CN(C)C)c(O)c(CN(C)C)c1` ?
inactive

What was the test verdict on `Cc1ccc(C)c(OCCCC(C)(C)C(=O)O)c1` ?
inactive
